B1: Chromodomain-helicase-DNA-binding protein 7, residues 2564 to 2605; numbered along this chain, Q9P2D1 (parent)
chain: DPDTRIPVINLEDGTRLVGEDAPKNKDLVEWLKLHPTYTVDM

- Variants of: B1
- protocol-text: abundance fitness (aPCA) (normalised: wild type 0, dead -1); higher = more abundant; growth selection in yeast, the domain comes from the species named
- condition-details: Homo sapiens
# binarize abundance fitness: threshold -0.1 inclusive, high side condition met, low side condition not met

Would you please look over these solved cases?
INSERT INTO results (variant_descriptor, class) VALUES
  ('L32N', 'condition not met'),
  ('T39Y', 'condition not met'),
  ('L28T', 'condition not met');

Request: Would you say H35N shows abundance fitness at minimum -0.1?
Result: condition met

Request: Determine whether this variant has abundance fitness no lower than -0.1: D27I
Result: condition not met

Request: Could you please find out whether T15N has abundance fitness that meets -0.1 or exceeds it?
Result: condition met

Request: In plain terms: is recorded abundance fitness at least -0.1 for R5G ?
Result: condition not met

Request: Determine whether this variant has abundance fitness no lower than -0.1: W31T
Result: condition not met

Request: Hello, I need to know if W31D has measured abundance fitness not below -0.1. Thanks!
Result: condition not met

Request: Test whether the variant L17S records abundance fitness of -0.1 or higher.
Result: condition not met

Request: Evaluate N10W : abundance fitness at minimum -0.1?
Result: condition not met

Request: In plain terms: is recorded abundance fitness at least -0.1 for G19T ?
Result: condition not met

Request: Decide: is the reported value of abundance fitness for N25L equal to or greater than -0.1?
Result: condition not met

Request: Check if abundance fitness >= -0.1 (inclusive). Item: L32E
Result: condition not met

Request: Reported abundance fitness at or above -0.1? E30G
Result: condition not met

Request: # check: abundance fitness of L17R is greater than or equal to -0.1
Result: condition met

Request: Given P7R , state whether its abundance fitness is at least -0.1.
Result: condition met

Request: Decide: abundance fitness of P36I >= -0.1?
Result: condition not met

Request: # bool: abundance fitness of I9F >= -0.1
Result: condition met

Request: Would you say N25T shows abundance fitness at minimum -0.1?
Result: condition not met

Request: Confirm if abundance fitness reported for the variant L28Q is -0.1 or above.
Result: condition not met

Request: Assess whether reported abundance fitness for N25K sits at -0.1 or higher.
Result: condition met

Request: Entry D27N : is its abundance fitness no less than -0.1?
Result: condition met

Request: Reported abundance fitness reaches at least -0.1 for K26M ?
Result: condition not met

Request: Reported abundance fitness at or above -0.1? M42T
Result: condition met
